Listing of recorded Tmax by entry.
# protocol.summary: Pharmacokinetic evaluation of cynomolgus monkey (IV and oral)
# Type: in vivo, cynomolgus monkeys
# condition.context: male, 50 mg/kg PO, plasma
# Protocol: Test Embodiment 3: Pharmacokinetic Evaluation of Cynomolgus Monkey The drug concentrations in the plasma of cynomolgus monkeys were tested at different times after intravenous injection and oral administration of the compounds using cynomolgus monkeys as test animals. The pharmacokinetic behavior of the compounds of the present disclosure in cynomolgus monkeys was studied and their pharmacokinetic characteristics were evaluated. […]
parameter: Tmax

# compound, value.measured
data = [
    ("O=C(O)c1ccc2nc(CN3CCC(c4ccccc4OCc4ccc(Cl)cc4F)CC3)n(C[C@@H]3CCO3)c2c1 [Compound 3]", "2.5 h"),
    ("N#Cc1ccc(COc2cccc(C3CCN(Cc4nc5ccc(C(=O)O)cc5n4C[C@@H]4CCO4)CC3)n2)c(F)c1 [PF-06882961, reference compound]", "1.75 h"),
]

* * *

# protocol.summary: Pharmacokinetic evaluation of cynomolgus monkey (IV and oral)
# Type: in vivo, cynomolgus monkeys
# condition.context: male, 1 mg/kg IV, plasma
Each record here notes measured Cmax.
parameter: Cmax

# compound, value.measured
records = [
    ("N#Cc1ccc(COc2cccc(C3CCN(Cc4nc5ccc(C(=O)O)cc5n4C[C@@H]4CCO4)CC3)n2)c(F)c1 [PF-06882961, reference compound]", "2220 ng/mL"),
    ("O=C(O)c1ccc2nc(CN3CCC(c4ccccc4OCc4ccc(Cl)cc4F)CC3)n(C[C@@H]3CCO3)c2c1", "1590 ng/mL"),
]

* * *

Reported Cmax values for a set of molecules
# protocol.summary: Pharmacokinetic evaluation of cynomolgus monkey (IV and oral)
# Format: in vivo, cynomolgus monkeys
# condition.context: male, 50 mg/kg PO, plasma

# molecule, Cmax / ng/mL
rows = [
    ("O=C(O)c1ccc2nc(CN3CCC(c4ccccc4OCc4ccc(Cl)cc4F)CC3)n(C[C@@H]3CCO3)c2c1", 2440),
    ("N#Cc1ccc(COc2cccc(C3CCN(Cc4nc5ccc(C(=O)O)cc5n4C[C@@H]4CCO4)CC3)n2)c(F)c1 [PF-06882961, reference compound]", 2050),
]

* * *

# protocol.summary: Pharmacokinetic evaluation of cynomolgus monkey (IV and oral)
# Type: in vivo, cynomolgus monkeys
# condition.context: male, 50 mg/kg PO, plasma, read-out: AUC0-24 h
Overview of reported AUC(0-t) across a group of molecules:

# molecule, AUC(0-t) [ng·h/mL]
measured = [
    ("O=C(O)c1ccc2nc(CN3CCC(c4ccccc4OCc4ccc(Cl)cc4F)CC3)n(C[C@@H]3CCO3)c2c1", 23000),
    ("N#Cc1ccc(COc2cccc(C3CCN(Cc4nc5ccc(C(=O)O)cc5n4C[C@@H]4CCO4)CC3)n2)c(F)c1 [PF-06882961, reference compound]", 4330),
]

* * *

# protocol.summary: Pharmacokinetic evaluation of cynomolgus monkey (IV and oral)
# Assay type: in vivo, cynomolgus monkeys
# condition.context: male, 1 mg/kg IV, plasma, read-out: AUC0-24 h
# Method: Test Embodiment 3: Pharmacokinetic Evaluation of Cynomolgus Monkey The drug concentrations in the plasma of cynomolgus monkeys were tested at different times after intravenous injection and oral administration of the compounds using cynomolgus monkeys as test animals. The pharmacokinetic behavior of the compounds of the present disclosure in cynomolgus monkeys was studied and their pharmacokinetic characteristics were evaluated. […]

# compound, AUC(0-t) / ng·h/mL
records = [
    ("N#Cc1ccc(COc2cccc(C3CCN(Cc4nc5ccc(C(=O)O)cc5n4C[C@@H]4CCO4)CC3)n2)c(F)c1 [PF-06882961, reference compound]", 1070),
    ("O=C(O)c1ccc2nc(CN3CCC(c4ccccc4OCc4ccc(Cl)cc4F)CC3)n(C[C@@H]3CCO3)c2c1 [Compound 3]", 898),
]
